test system: HeLa; assay: Inhibition of cytopathogenicity of herpes simplex type 2 virus([…] in Hela cell culture; assay type: functional, cell-based; conditions: Homo sapiens
Consider the following compounds and their measured log10 IC50 readings.
Quantity measured: log10 IC50 (log10 of the value in µg/mL)

[[record]]
compound = "Nc1ncnc2c1ncn2COCCP(=O)(O)O[C@H]1[C@H](O)[C@H](n2cnc3c(N)ncnc32)O[C@@H]1CO"
quantity_measured = "log10 IC50"
reported_value = 1.21

[[record]]
compound = "Nc1ncnc2c1ncn2COCCO"
quantity_measured = "log10 IC50"
reported_value = 0.92

[[record]]
compound = "Nc1nc2c(ncn2COCCO)c(=O)[nH]1 [ACYCLOVIR]"
quantity_measured = "log10 IC50"
reported_value = -0.64

[[record]]
compound = "CCOP(=O)(O)CCOCn1cnc2c(N)ncnc21.N"
quantity_measured = "log10 IC50"
reported_value = 1.14

[[record]]
compound = "Nc1ncnc2c1ncn2COCCO.Nc1ncnc2c1ncn2COCCP(=O)(O)O"
quantity_measured = "log10 IC50"
reported_value = -0.42

[[record]]
compound = "COC(=O)C(C)NP(=O)(CCOCn1cnc2c(N)ncnc21)O[C@H]1[C@H](O)[C@H](n2cnc3c(N)ncnc32)O[C@@H]1CO (stereo partly drawn)"
quantity_measured = "log10 IC50"
reported_value = -0.06

[[record]]
compound = "Nc1ncnc2c1ncn2COCCP(=O)(O)O.Nc1ncnc2c1ncn2[C@@H]1O[C@H](CO)[C@@H](O)[C@@H]1O"
quantity_measured = "log10 IC50"
reported_value = 0.10

[[record]]
compound = "Nc1ncnc2c1ncn2COCCP(=O)(O)O"
quantity_measured = "log10 IC50"
reported_value = 0.77


----------
assay: Solubility was determined with phosphate buffer (0.10M, 5 mL).; format: physicochemical; details: read-out: Solubility in water
Consider the following compounds and their measured solubility readings.
Quantity measured: solubility (µg/mL)

[[record]]
compound = "COC(=O)[C@@H](C)NP(=O)(C[C@H]1O[C@@H](n2cc(C)c(=O)[nH]c2=O)C[C@@H]1F)O[C@H]1C[C@H](n2cc(C)c(=O)[nH]c2=O)O[C@@H]1CO (stereo partly drawn)"
reported_value = 8920

[[record]]
compound = "Nc1ncnc2c1ncn2[C@@H]1O[C@H](CO)[C@@H](O)[C@H]1O"
reported_value = 400

[[record]]
compound = "COC(=O)[C@@H](C)NP(=O)(C[C@H]1O[C@@H](n2cc(C)c(=O)[nH]c2=O)C[C@@H]1N=[N+]=[N-])O[C@H]1C[C@H](n2cc(C)c(=O)[nH]c2=O)O[C@@H]1CO (stereo partly drawn)"
reported_value = 9200

[[record]]
compound = "COC(=O)[C@H](C)NP(=O)(C[C@H]1O[C@@H](n2cc(C)c(=O)[nH]c2=O)C[C@@H]1N=[N+]=[N-])O[C@H]1C[C@H](n2cc(C)c(=O)[nH]c2=O)O[C@@H]1CO (stereo partly drawn)"
reported_value = 9130

[[record]]
compound = "COC(=O)C(C)NP(=O)(CCOCn1cnc2c(N)ncnc21)O[C@H]1[C@H](O)[C@H](n2cnc3c(N)ncnc32)O[C@@H]1CO (stereo partly drawn)"
reported_value = 8250

[[record]]
compound = "COC(=O)[C@H](C)NP(=O)(C[C@H]1O[C@@H](n2cc(C)c(=O)[nH]c2=O)C[C@@H]1F)O[C@H]1C[C@H](n2cc(C)c(=O)[nH]c2=O)O[C@@H]1CO (stereo partly drawn)"
reported_value = 8790

[[record]]
compound = "Cc1cn([C@H]2C[C@H](N=[N+]=[N-])[C@@H](CP(=O)(O)O[C@H]3C[C@H](n4cc(C)c(=O)[nH]c4=O)O[C@@H]3CO)O2)c(=O)[nH]c1=O"
reported_value = 3240

[[record]]
compound = "Cc1cn([C@H]2C[C@H](OP(=O)(O)C[C@H]3O[C@@H](n4cc(C)c(=O)[nH]c4=O)C[C@@H]3F)[C@@H](CO)O2)c(=O)[nH]c1=O"
reported_value = 3980

[[record]]
compound = "Nc1ncnc2c1ncn2COCCO"
reported_value = 1950

[[record]]
compound = "Nc1ncnc2c1ncn2COCCP(=O)(O)O"
reported_value = 13600

[[record]]
compound = "Cc1cn([C@H]2C[C@H](N=[N+]=[N-])[C@@H](CP(=O)(O)O)O2)c(=O)[nH]c1=O"
reported_value = 11200

[[record]]
compound = "Cc1cn([C@H]2C[C@H](F)[C@@H](CP(=O)(O)O)O2)c(=O)[nH]c1=O"
reported_value = 12300

[[record]]
compound = "Nc1ncnc2c1ncn2COCCP(=O)(O)O[C@H]1[C@H](O)[C@H](n2cnc3c(N)ncnc32)O[C@@H]1CO"
reported_value = 2460

